System: HCT-15
Hi! Could you tag entries with GI50 below 40 µM as Fulfilled, and those at or above as Not fulfilled? Much appreciated.

- S=c1sc2sc(=S)sc2s1: Fulfilled
- O=C1CCCCCCCCCCC(=O)C2CCOCCOCCOCCC1Cc1cccc(n1)C2: Not fulfilled
- CCOC(=O)/C(=C\NC#N)c1nc2ccccc2[nH]1: Not fulfilled
- C/C(N)=C/C(=O)c1[nH]c(C(=O)O)cc1C1CCN(Cc2ccccc2)C1=O (configuration not stated): Fulfilled
- O=C1c2ccccc2C(=O)c2sc(Nc3ccc(Cl)cc3)nc21: Fulfilled
- COc1ccc2c(c1)O[C@@H]1[C@@H](OC3OC(CO)C(O)C(O)C3O)Oc3cc(OC)c(OC)cc3[C@]1(O)C2=O (some centres not stated): Not fulfilled
- CCOC(=O)C(CNc1ccc(O)cc1)NC(=O)c1ccccc1 (configuration not stated): Not fulfilled
- Brc1c2nc3ccccc3nc2n2ccc3ccccc3c12: Not fulfilled
- Cc1nc(Cl)c(CBr)c(Cl)n1: Fulfilled
- CC(=O)N[C@@H](Cc1ccc(O)cn1)C(=O)NCc1ccc(Cl)cc1: Not fulfilled
- COc1ccc(OC)c2cc(C3(C)SCCCS3)ccc12: Not fulfilled
- O=C1OC(c2ccccc2)=N/C1=C/N1CCCC1C(=O)O (configuration not stated): Not fulfilled
- CCC(O)(c1ccc(OC)cc1)C(c1ccc(OCc2ccccc2)cc1)c1ccc(OCc2ccccc2)cc1 (configuration not stated): Not fulfilled
- COc1ccc(-c2cc(=O)c3cc(C)c(C)c(C(=O)O)c3o2)cc1: Not fulfilled
- CN(c1n[n+]2c(-c3ccccc3)csc2s1)c1n[n+]2c(-c3ccccc3)csc2s1: Fulfilled
- O=C1N[C@H](C(=O)O)[C@@H](c2ccc(OCc3ccccc3)cc2)O1: Not fulfilled
- CO[C@H](c1ccccc1)[C@H](O)[C@](O)(c1ccccc1)P(=O)(OC)OC: Not fulfilled
- O=c1[nH]c(=O)n(CCOc2ccc(Cl)cc2)cc1Nc1ccccc1: Not fulfilled
- O=[N+]([O-])/C(C(Cl)=C(Cl)Cl)=C(\SCc1ccccc1)N1CCCCC1: Fulfilled
- COc1ccc2c(c1)CC1(O)COc3cc(OC)ccc3C1O2 (configuration not stated): Not fulfilled
- Cc1ccc(S(=O)(=O)NC(=O)NC(Cc2ccc(O)cc2)C(=O)O)cc1 (configuration not stated): Not fulfilled

###

Recorded GI50 by entry
Tested on: UACC-62
Experiment: NCI tumour cell line growth inhibition, 48 h
The source made the active and inactive calls. No stated cut-off is given here; in the data, active = GI50 up to about 1.1 µM and inactive = higher.
measured-metric: GI50

- Cc1ccc(/N=c2/oc3c(ccc4ccccc43)nc2Nc2ccc(C)cc2)cc1: > 100 µM (inactive)
- O=C(NC1CC1)c1c(O)[nH]c(=S)[nH]c1=O: > 100 µM (inactive)
- O=C1OC(c2ccccc2)=N/C1=C/N1CCCC1C(=O)O (stereo not given): > 100 µM (inactive)
- Cc1ccc(S(=O)(=O)N/N=C(/CC(=O)c2c(C)[n+]([O-])c3ccccc3[n+]2[O-])C(=O)Nc2ccc(C)c(C)c2)cc1: 79.8 µM (inactive)
- O=c1c(C(c2cc(OCc3ccccc3)cc(OCc3ccccc3)c2)c2c(O)oc3ccccc3c2=O)c(O)oc2ccccc12: 4.02 µM (inactive)
- COC(OC)C1OCC(n2cc(F)c(=O)[nH]c2=O)C1O (stereo not given): > 100 µM (inactive)
- O=C1CC(c2n[nH]c3ccccc23)C(=O)N1c1ccccc1 (stereo not given): > 100 µM (inactive)
- COc1ccc(C2C(C(=O)O)=C(CO)Oc3cc4c(cc32)OCO4)cc1 (stereo not given): > 100 µM (inactive)
- Fc1cccc(Cl)c1C1SCc2nc3cc4ccccc4cc3n21 (stereo not given): 43.6 µM (inactive)
- O=C(O)CC12C3C4C5C3C1C5C42 (stereo not given): > 100 µM (inactive)
